Below are pKi values measured for Sodium-dependent dopamine transporter (Homo sapiens, UniProt Q01959).
pKi: −log10 of the molar value.
MEASUREMENT_NAME: pKi

[[record]]
structure_smiles_string = "COC[C@H](NC(=O)c1ccn(S(C)(=O)=O)c1)C(=O)Nc1nc(-c2cccc(-c3ccn(C)n3)c2)cs1"
measurement_name = "pKi"
observed = "< 5.00"

[[record]]
structure_smiles_string = "C[C@H](NC(=O)c1cn(C2(C#N)CC2)cn1)C(=O)Nc1nc(-c2cccc(-c3ccn(C)n3)c2)cs1"
measurement_name = "pKi"
observed = "< 5.00"


src = ChEMBL document CHEMBL5303766
